The values you see were collected from paper PMC4933879.

Target: tubulin covalently linked to a biotinylated stathmin-like peptide
Assay: ELISA (off-rate estimation)
Conditions: chain shown with the change; incubation with 100 nM soluble tubulin to prevent rebinding; 10 nM biotinylated peptide-coupled tubulin for coating; parent: est. 0.11; read off a plot
assay-metric: log10 of response (log10 of the value in AU)

1) DARPin D1 E127K; V131A (protein) MRGSHHHHHHGSDLGKKLLEAARAGQDDEVRILMANGADVNATDASGLTPLHLAATYGHLEIVEVLLKHGADVNAIDIMGSTPLHLAALIGHLEIVEVLLKHGADVNAVDTWGDTPLHLAAIMGHLKIVEALLKHGADVNAQDKFGKTAFDISIDNGNEDLAEILQKLN : -1.12
2) DARPin D1 I32V (protein) MRGSHHHHHHGSDLGKKLLEAARAGQDDEVRVLMANGADVNATDASGLTPLHLAATYGHLEIVEVLLKHGADVNAIDIMGSTPLHLAALIGHLEIVEVLLKHGADVNAVDTWGDTPLHLAAIMGHLEIVEVLLKHGADVNAQDKFGKTAFDISIDNGNEDLAEILQKLN : -0.96
3) DARPin D1 H118R; I122V (protein) MRGSHHHHHHGSDLGKKLLEAARAGQDDEVRILMANGADVNATDASGLTPLHLAATYGHLEIVEVLLKHGADVNAIDIMGSTPLHLAALIGHLEIVEVLLKHGADVNAVDTWGDTPLRLAAVMGHLEIVEVLLKHGADVNAQDKFGKTAFDISIDNGNEDLAEILQKLN : -0.16
4) DARPin D1 I32V; N74S; I76S; I78L; H118R; I122V; E127K; V131A; F150Y; I152T; N158S (protein) MRGSHHHHHHGSDLGKKLLEAARAGQDDEVRVLMANGADVNATDASGLTPLHLAATYGHLEIVEVLLKHGADVSASDLMGSTPLHLAALIGHLEIVEVLLKHGADVNAVDTWGDTPLRLAAVMGHLKIVEALLKHGADVNAQDKFGKTAYDTSIDNGSEDLAEILQKLN : -0.13
5) DARPin D1 H118R (protein) MRGSHHHHHHGSDLGKKLLEAARAGQDDEVRILMANGADVNATDASGLTPLHLAATYGHLEIVEVLLKHGADVNAIDIMGSTPLHLAALIGHLEIVEVLLKHGADVNAVDTWGDTPLRLAAIMGHLEIVEVLLKHGADVNAQDKFGKTAFDISIDNGNEDLAEILQKLN : -0.12
6) DARPin D1 I76S (protein) MRGSHHHHHHGSDLGKKLLEAARAGQDDEVRILMANGADVNATDASGLTPLHLAATYGHLEIVEVLLKHGADVNASDIMGSTPLHLAALIGHLEIVEVLLKHGADVNAVDTWGDTPLHLAAIMGHLEIVEVLLKHGADVNAQDKFGKTAFDISIDNGNEDLAEILQKLN : -0.82
